The origin of these recorded values is patent US11840521B2.

biological target: MRGPRX4 (Homo sapiens); test: MRGPR X4 antagonist activity, IP-One Gq HTRF assay in stably transfected HEK cells (versus agonist bilirubin, deoxycholic acid, conjugated bilirubin, urobilin, obeticholic acid or BAR502); assay type: cell-based; design: expressed in transfected cells; host or cells: HEK cells, stably transfected; settings: versus 10 μM Bilirubin agonist; HEK cells expressing human MRGPR X4; read-out: MRGPR4 Antagonist Activity
Sequence (Q96LA9 whole entry): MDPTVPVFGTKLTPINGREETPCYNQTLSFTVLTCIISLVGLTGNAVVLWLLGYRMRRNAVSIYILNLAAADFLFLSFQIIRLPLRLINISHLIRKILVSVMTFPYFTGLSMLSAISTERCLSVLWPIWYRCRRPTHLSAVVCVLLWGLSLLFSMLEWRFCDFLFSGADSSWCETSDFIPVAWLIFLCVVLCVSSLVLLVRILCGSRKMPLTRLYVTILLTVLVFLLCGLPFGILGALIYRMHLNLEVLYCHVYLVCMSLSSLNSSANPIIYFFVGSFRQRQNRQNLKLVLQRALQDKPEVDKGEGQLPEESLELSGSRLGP
pIC50: −log10 of the molar value.
Listing of recorded pIC50 by entry.

chemical_string=O=C(O)c1cccc(COc2ccc(C(F)(F)F)cc2Cl)n1 study_system="MRGPRX4 (Homo sapiens)" assay_metric=pIC50 result_value="> 7.00"
chemical_string=O=C(O)c1ccc(F)c(COc2ccc(Cl)cc2Cl)c1 study_system="MRGPRX4 (Homo sapiens)" assay_metric=pIC50 result_value="5.60 to 6.00"
chemical_string=NC(=O)C[C@H](NC(=O)c1cccc(COc2ccc(C(F)(F)F)cc2Cl)c1)C(=O)O study_system="MRGPRX4 (Homo sapiens)" assay_metric=pIC50 result_value="6.30 to 7.00"
chemical_string=O=C(O)c1cccc(COc2cc(Cl)cc(Cl)c2)c1 study_system="MRGPRX4 (Homo sapiens)" assay_metric=pIC50 result_value="5.60 to 6.00"
chemical_string=Cc1c(COc2ccc(Cl)cc2Cl)cccc1C(=O)O study_system="MRGPRX4 (Homo sapiens)" assay_metric=pIC50 result_value="6.30 to 7.00"
chemical_string=O=C(O)c1cc(COc2ccc(C(F)(F)F)cc2Cl)cc(-c2ccccc2)c1 study_system="MRGPRX4 (Homo sapiens)" assay_metric=pIC50 result_value="6.00 to 6.30"
chemical_string=COC(=O)c1cccc(COc2ccc(Cl)cc2C(F)(F)F)n1 study_system="MRGPRX4 (Homo sapiens)" assay_metric=pIC50 result_value="6.00 to 6.30"

Could you now look at the following compound, please?
Q: Give measured pIC50 for "O=C(O)c1cccc(COc2cccc3c2CCCC3=O)c1" (MRGPRX4 (Homo sapiens)).
A: 5.60 to 6.00
